Listed next: entries and their corresponding % displacement at 10 nM.
molecular target: human cloned somatostatin receptor 1 (human) (UniProt P30872); test: 125I-Tyr11-SRIF-14 displacement
Sequence (P30872 whole entry): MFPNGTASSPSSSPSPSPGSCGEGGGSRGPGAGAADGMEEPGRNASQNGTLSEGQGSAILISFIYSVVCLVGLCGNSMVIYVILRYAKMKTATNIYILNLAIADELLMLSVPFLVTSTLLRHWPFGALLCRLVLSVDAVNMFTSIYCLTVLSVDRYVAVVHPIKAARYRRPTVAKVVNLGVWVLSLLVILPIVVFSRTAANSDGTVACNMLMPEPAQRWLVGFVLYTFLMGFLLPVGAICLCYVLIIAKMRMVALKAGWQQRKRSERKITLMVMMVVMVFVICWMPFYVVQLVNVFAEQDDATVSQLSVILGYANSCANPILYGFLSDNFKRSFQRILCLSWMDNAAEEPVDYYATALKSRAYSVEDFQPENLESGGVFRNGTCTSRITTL
*1 amine or outer side, *2 acyl side, *3 side chain or, on linkers, in order; H or OH if unused. Bridges are numbered along the chain shown (N, C = ends). Where no end group is shown, it is not given here. [ ]: non-standard residue; d: D form. The star is where a group is joined. DOTA = O=C(O)CN1CCN(CC(=O)O)CCN(CC(=O)*)CCN(CC(=O)O)CC1; N(2-mercaptoethyl)Gly = O=C(CN(CCS[*:3])[*:1])[*:2]; 4Amb = NCc1ccc(C(=O)O)cc1; Orn = NCCC[C@H](N)C(=O)O
Numeric answer only, unit % assumed.

# count of solved cases: 2
INSERT INTO assay_data (binder, measure_name, reported_result) VALUES
  ('{DOTA}-G[dF]RCF[dW]KTF[N(2-mercaptoethyl)Gly]-NH2 (disulfide 4-10; SMILES C[C@@H](O)[C@@H]1NC(=O)[C@H](CCCCN)NC(=O)[C@@H](Cc2c[nH]c3ccccc23)NC(=O)[C@H](Cc2ccccc2)NC(=O)[C@@H](NC(=O)[C@H](CCCNC(=N)N)NC(=O)[C@@H](Cc2ccccc2)NC(=O)CNC(=O)CN2CCN(CC(=O)O)CCN(CC(=O)O)CCN(CC(=O)O)CC2)CSSCCN(CC(N)=O)C(=O)[C@H](Cc2ccccc2)NC1=O) [SEQ ID NO: 11]', '% displacement at 10 nM', 19),
  ('{DOTA}-A[dF]RCF[dW]KTF[N(2-mercaptoethyl)Gly]-NH2 (disulfide 4-10; SMILES C[C@H](NC(=O)CN1CCN(CC(=O)O)CCN(CC(=O)O)CCN(CC(=O)O)CC1)C(=O)N[C@H](Cc1ccccc1)C(=O)N[C@@H](CCCNC(=N)N)C(=O)N[C@H]1CSSCCN(CC(N)=O)C(=O)[C@H](Cc2ccccc2)NC(=O)[C@H]([C@@H](C)O)NC(=O)[C@H](CCCCN)NC(=O)[C@@H](Cc2c[nH]c3ccccc23)NC(=O)[C@H](Cc2ccccc2)NC1=O) [SEQ ID NO: 12]', '% displacement at 10 nM', 10);

Give % displacement at 10 nM for K[dF]RCF[dW]KTF[N(2-mercaptoethyl)Gly]-NH2 (disulfide 4-10; not fully specified (residue 1, N-terminus); printed as (DOTA)2-Lys1-D-Phe2-Arg3-Cys4-Phe5-D-Trp6-Lys7-Thr8-Phe9-NTEG10-NH2 (cyclo 3-9); also: (DOTA)2 on Lys1, sites not given here) [SEQ ID NO: 16]
5

Give % displacement at 10 nM for {DOTA}-[dF][Orn]CF[dW]KTF[N(2-mercaptoethyl)Gly]-NH2 (disulfide 3-9) [SEQ ID NO: 21]
22

Give % displacement at 10 nM for {DOTA}-[dF]EE[Orn]CF[dW]KTF[N(2-mercaptoethyl)Gly]-NH2 (disulfide 5-11; SMILES C[C@@H](O)[C@@H]1NC(=O)[C@H](CCCCN)NC(=O)[C@@H](Cc2c[nH]c3ccccc23)NC(=O)[C@H](Cc2ccccc2)NC(=O)[C@@H](NC(=O)[C@H](CCCN)NC(=O)[C@H](CCC(=O)O)NC(=O)[C@H](CCC(=O)O)NC(=O)[C@@H](Cc2ccccc2)NC(=O)CN2CCN(CC(=O)O)CCN(CC(=O)O)CCN(CC(=O)O)CC2)CSSCCN(CC(N)=O)C(=O)[C@H](Cc2ccccc2)NC1=O) [SEQ ID NO: 22]
7

Give % displacement at 10 nM for {DOTA}-[dF]KCF[dW]KTF[N(2-mercaptoethyl)Gly]-NH2 (disulfide 3-9; SMILES C[C@@H](O)[C@@H]1NC(=O)[C@H](CCCCN)NC(=O)[C@@H](Cc2c[nH]c3ccccc23)NC(=O)[C@H](Cc2ccccc2)NC(=O)[C@@H](NC(=O)[C@H](CCCCN)NC(=O)[C@@H](Cc2ccccc2)NC(=O)CN2CCN(CC(=O)O)CCN(CC(=O)O)CCN(CC(=O)O)CC2)CSSCCN(CC(N)=O)C(=O)[C@H](Cc2ccccc2)NC1=O) [SEQ ID NO: 9]
10

Give % displacement at 10 nM for {DOTA-4Amb}-[dF]RCF[dW]KTF[N(2-mercaptoethyl)Gly]-NH2 (disulfide 3-9) [SEQ ID NO: 18]
4
